tested on: rhabdomyosarcoma (RD) cells; experiment: Assay for inhibition of cell proliferation (MTT), rhabdomyosarcoma cells; type: cell-based, human; conditions: ratio of paclitaxel IC50 to compound IC50, RD cells
measured-quantity: RD Ratio (paclitaxel/compound)

1. CN(C)CCCOc1cc(F)c(-c2c(Cl)nc(-n3cccn3)c(=O)n2CC2CC2)c(F)c1 : 5.37
2. O=c1c(-n2cccn2)nc(Cl)c(-c2c(F)cc(F)cc2F)n1CC1CC1 : 0.19
3. O=c1c(-n2cccn2)nc(Cl)c(-c2c(F)cccc2F)n1Cc1ccc(F)cc1 : 0.24
4. CC(C)Cn1c(-c2c(F)cccc2F)c(Cl)nc(-n2cncn2)c1=O : 0.01
5. CC[C@H](C)Cn1c(-c2c(F)cc(F)cc2F)c(Cl)nc(-n2cccn2)c1=O : 0.85
6. CCC(C)Cn1c(-c2ccc(OCCN3CCCC3)cc2F)c(Cl)nc(-n2cccn2)c1=O (centres unmarked) : 0.04
7. CC(C)Cn1c(-c2c(F)cccc2F)c(Cl)nc(-n2cccn2)c1=O : 0.03
8. CCCCn1c(-c2c(F)cc(F)cc2F)c(Cl)nc(-c2ccccn2)c1=O : 0.01

All values here come from patent US20090186907A1.
